Attribution: ChEMBL document CHEMBL5046309

Experiment: Apparent permeability of the compound across apical to basolateral side in […] measured up to 24 hrs by LC-MS/MS analysis
Type: ADME, cell-based
measured quantity: Papp A→B at 24 h (×10⁻⁶ cm/s)
Field: numeric (×10⁻⁶ cm/s). Do not append units.

# compound C[C@H]1Cn2cnc(C(=O)N[C@H](C)C(F)(F)F)c2CN1C(=O)Nc1ccc(F)c(C#N)c1 ; its Papp A→B at 24 h = 10.9
